Cited source for all entries: PubChem BioAssay (NCI)

- Test system: SK-MEL-2 melanoma
- Method Notes: NCI tumour cell line growth inhibition, 48 h
Readout Type: TGI

As a guide, the following entries are already answered.
Molecule: COC1=CC(=O)c2ccccc2C1(C)C1=NC(C)(C)CO1 (centres undefined)
TGI: > 100 µM
//
Molecule: NC1=NS(=O)(=O)Nc2nc(-c3cccs3)[nH]c21
TGI: > 100 µM
//
Molecule: C[C@]12CC[C@H](O)CC1=CC[C@@H]1[C@@H]2CC[C@]2(C)C(=O)CC[C@@H]12
TGI: > 100 µM
//
Molecule: Cc1ccccc1NC(=O)C(=O)Cc1cnc2ccccc2n1
TGI: > 100 µM
//
Molecule: CC(=O)N[C@@H](Cc1ccc(OP(=O)(O)O)cc1)C(=O)N[C@H]1CCC(=O)N2CCC[C@@H](C(=O)NCc3ccc(O)cc3)N2C1=O
TGI: > 25 µM
//
Molecule: O=C1/C(=C\c2c(-c3ccccc3)nn(-c3ccccc3)c2O)C(c2ccccc2)=NN1c1ccccc1
TGI: > 100 µM

In: What value of TGI has been reported for the following molecule? COC(=O)/C(=N\O)C(C(=O)C=C(C)C)C(=O)C(=O)Nc1ccccc1C (centres undefined)
Out: > 100 µM

In: What value of TGI has been reported for the following molecule? c1cnc2c(c1)Nc1cnncc1S2
Out: > 100 µM

In: What value of TGI has been reported for the following molecule? COc1ccc(-n2c(=O)n(C)c(=O)n2-c2c(C)c(C)c(C)c(C)c2C)cc1
Out: > 100 µM
